- protocol: Hepatic intrinsic clearance in rat liver microsomes at 1 uM preincubated for 5 mins followed by NADPH addition and measured up to 45 mins by LC-MS/MS analysis
- Type: ADME, Microsome
- condition summary: read-out: CLH
value kind: CLint scaled at 1 µM (mL/min/kg)
Expressed in mL/min/kg, but write only the number.

Asked: Field request: CLint scaled at 1 µM | item: `N#Cc1cnc2c(N3CCOCC3)cccc2c1N1CCN(c2ccccc2F)CC1`
Given back: 58.6

Asked: Field request: CLint scaled at 1 µM | item: `COc1cc(F)cc2c(N3CCN(c4ccccc4F)CC3)c(C#N)cnc12`
Given back: 56

Asked: Field request: CLint scaled at 1 µM | item: `CC(C)Oc1cc(F)cc2c(N3CCN(c4ccccc4F)CC3)c(C#N)cnc12`
Given back: 50.7

Asked: Field request: CLint scaled at 1 µM | item: `[2H]C([2H])([2H])Oc1cc(F)cc2c(N3CCN(c4ccccc4F)CC3)c(C#N)cnc12`
Given back: 46.9

Asked: Field request: CLint scaled at 1 µM | item: N#Cc1cnc2c(OC3CCOC3)cccc2c1N1CCN(c2ccccc2F)CC1 (racemic)
Given back: 54

----------
- subject of test: Metabotropic glutamate receptor 5 (Homo sapiens)
- Sequence (P41594 whole entry): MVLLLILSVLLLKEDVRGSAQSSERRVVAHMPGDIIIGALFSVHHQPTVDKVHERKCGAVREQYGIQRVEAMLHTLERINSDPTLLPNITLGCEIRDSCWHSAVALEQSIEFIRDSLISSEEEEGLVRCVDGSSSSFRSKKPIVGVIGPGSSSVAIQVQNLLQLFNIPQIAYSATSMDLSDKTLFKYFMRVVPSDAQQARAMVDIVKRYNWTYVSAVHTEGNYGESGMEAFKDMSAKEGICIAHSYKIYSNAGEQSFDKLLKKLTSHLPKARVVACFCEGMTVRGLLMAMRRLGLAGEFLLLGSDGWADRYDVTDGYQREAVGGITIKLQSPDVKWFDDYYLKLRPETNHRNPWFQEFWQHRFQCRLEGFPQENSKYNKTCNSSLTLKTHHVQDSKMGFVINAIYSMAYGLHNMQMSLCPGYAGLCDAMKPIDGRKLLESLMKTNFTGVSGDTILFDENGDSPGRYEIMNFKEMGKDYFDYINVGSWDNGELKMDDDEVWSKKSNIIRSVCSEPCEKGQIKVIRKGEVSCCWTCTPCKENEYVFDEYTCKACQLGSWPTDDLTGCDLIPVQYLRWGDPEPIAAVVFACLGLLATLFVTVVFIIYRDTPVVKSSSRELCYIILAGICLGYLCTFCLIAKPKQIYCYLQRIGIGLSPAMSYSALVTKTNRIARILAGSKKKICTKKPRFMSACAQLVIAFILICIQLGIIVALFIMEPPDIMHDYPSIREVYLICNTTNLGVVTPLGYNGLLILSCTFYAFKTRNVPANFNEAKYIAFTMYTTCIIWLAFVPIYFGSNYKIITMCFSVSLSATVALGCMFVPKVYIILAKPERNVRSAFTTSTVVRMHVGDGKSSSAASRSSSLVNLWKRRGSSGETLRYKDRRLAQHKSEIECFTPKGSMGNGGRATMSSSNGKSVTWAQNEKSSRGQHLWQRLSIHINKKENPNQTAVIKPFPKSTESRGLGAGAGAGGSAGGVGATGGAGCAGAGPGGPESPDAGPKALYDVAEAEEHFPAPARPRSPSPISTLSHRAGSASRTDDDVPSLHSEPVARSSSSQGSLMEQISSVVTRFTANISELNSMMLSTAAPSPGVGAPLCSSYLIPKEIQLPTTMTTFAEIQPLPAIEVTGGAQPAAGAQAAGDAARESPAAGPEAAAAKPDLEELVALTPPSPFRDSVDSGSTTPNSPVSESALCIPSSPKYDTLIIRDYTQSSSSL
- protocol: Negative allosteric modulation of mGlu5 receptor (unknown origin)
value kind: IC50

Asked: Field request: IC50 | item: `CCOC(=O)c1cnc2c(OC)cccc2c1N1CCN(c2ccccc2F)CC1`
Given back: > 30 µM

----------
- subject of test: Metabotropic glutamate receptor 7 (Rattus norvegicus, UniProt P35400)
- Sequence (P35400 whole entry): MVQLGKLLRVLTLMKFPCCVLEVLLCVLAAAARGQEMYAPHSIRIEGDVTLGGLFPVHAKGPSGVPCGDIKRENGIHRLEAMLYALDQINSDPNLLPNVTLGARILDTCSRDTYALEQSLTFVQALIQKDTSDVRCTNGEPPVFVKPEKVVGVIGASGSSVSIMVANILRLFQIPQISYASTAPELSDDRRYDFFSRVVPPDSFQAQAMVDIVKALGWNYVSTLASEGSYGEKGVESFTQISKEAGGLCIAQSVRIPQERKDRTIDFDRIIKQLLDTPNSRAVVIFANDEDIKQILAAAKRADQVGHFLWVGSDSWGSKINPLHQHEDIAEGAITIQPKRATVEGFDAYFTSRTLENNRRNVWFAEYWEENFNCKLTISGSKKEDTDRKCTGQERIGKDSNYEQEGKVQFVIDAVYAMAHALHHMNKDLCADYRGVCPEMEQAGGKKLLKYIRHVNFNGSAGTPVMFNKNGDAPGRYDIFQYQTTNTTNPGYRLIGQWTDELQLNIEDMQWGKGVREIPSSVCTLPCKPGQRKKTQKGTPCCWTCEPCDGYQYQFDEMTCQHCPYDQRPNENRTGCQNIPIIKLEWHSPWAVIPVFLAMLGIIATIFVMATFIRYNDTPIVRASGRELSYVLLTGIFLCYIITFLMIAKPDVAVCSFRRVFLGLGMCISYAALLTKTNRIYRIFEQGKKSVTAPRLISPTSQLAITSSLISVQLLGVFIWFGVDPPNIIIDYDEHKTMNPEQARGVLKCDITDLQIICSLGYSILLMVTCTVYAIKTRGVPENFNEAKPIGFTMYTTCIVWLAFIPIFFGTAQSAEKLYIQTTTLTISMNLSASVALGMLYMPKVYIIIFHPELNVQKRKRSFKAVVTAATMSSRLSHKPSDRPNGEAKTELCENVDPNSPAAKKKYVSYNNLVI
- protocol: Positive allosteric modulation of rat mGlu7 receptor expressed in HEK293 cells co-expressing Gai5 assessed as potentiation of L-AP4-induced calcium mobilization preincubated for 140 secs and treated with EC20 L-AP4 for 125 secs and followed by subsequent addition of EC80 L-AP4 by Fluo-4-AM dye based fluorescence assay
- Assay type: functional, cell-based
- condition summary: read-out: EC50
Each entry below carries its recorded pEC50.
Reminder that pEC50 means the negative base-10 logarithm of the concentration expressed in mol/L.

compound="N#Cc1cnc2c(OCC3CCOC3)cccc2c1N1CCN(c2ccccc2F)CC1 (racemic)" reported_measurement=5.89

Asked: Field request: pEC50 | item: `CC(C)Oc1cccc2c(N3CCN(c4ccccc4F)CC3)c(C#N)cnc12`
Given back: 5.90

Asked: Field request: pEC50 | item: `N#Cc1cnc2c(N3CCOCC3)cccc2c1N1CCN(c2ccccc2F)CC1`
Given back: 5.89

Asked: Field request: pEC50 | item: N#Cc1cnc2c(OC3CCOC3)cccc2c1N1CCN(c2ccccc2F)CC1 (single isomer, unassigned; (-))
Given back: 5.96

----------
Each entry below carries its recorded EC50.
- subject of test: Metabotropic glutamate receptor 7 (Rattus norvegicus)
- protocol: Positive allosteric modulation of rat mGlu7 receptor expressed in HEK293 cells co-expressing Gai5 assessed as potentiation of L-AP4-induced calcium mobilization preincubated for 140 secs and treated with EC20 L-AP4 for 125 secs and followed by subsequent addition of EC80 L-AP4 by Fluo-4-AM dye based fluorescence assay
- Format: functional, cell-based
- condition summary: read-out: EC50

compound_structure_string=N#Cc1cnc2c(OC3CCC3)cc(F)cc2c1N1CCN(c2ccccc2F)CC1 reported_measurement="> 10 µM"
compound_structure_string=N#Cc1cnc2c(OC(F)F)cccc2c1N1CCN(c2ccccc2F)CC1 reported_measurement="> 10 µM"

Asked: Field request: EC50 | item: `N#Cc1cnc2c(-n3cncn3)cccc2c1N1CCN(c2ccccc2F)CC1`
Given back: > 10 µM

These entries and their values trace back to ChEMBL document CHEMBL4665820.
